I'd be grateful if you could share measured GI50 for these entries.
system: HT-1080; test: Antiproliferative activity against human HT1080 cells after 48 hrs by SRB assay; assay type: functional; conditions: HT-1080, 48 h

Answered examples (5):
- molecule: "CCc1ccc2ccn3ccnc3c2n1"
  GI50: "> 100 µM"
- molecule: "c1ccc2c(c1)CCc1nc3c(ccn4ccnc34)cc1-2"
  GI50: "41.4 µM"
- molecule: "O=C1CCCc2nc3ccc4nccn4c3cc21"
  GI50: "> 100 µM"
- molecule: "c1cn2c(ccc3nc4c(cc32)CCCC4)n1"
  GI50: "> 100 µM"
- molecule: "CCOC(=O)C1CCc2nc3ccc4nccn4c3cc2C1 (stereo unspecified)"
  GI50: "> 100 µM"

Pending molecule:
Request: Report GI50 under test system HT-1080 for "c1ccc2cc3nc4c(ccn5ccnc45)cc3cc2c1" .
Result: 20.7 µM
